Attribution: ChEMBL document CHEMBL3102852

METHOD: Cytotoxicity against multidrug-resistant human KBVIN cells after 72 hrs by sulforhodamine B assay
Format: functional, cell-based
MEASUREMENT_TYPE: IC50 (µM)
Field format: number, assumed µM, no unit text.

Here is how some compounds turned out for IC50.
CHEM_SMILES	RESULT
COc1cc([C@@H]2c3cc4c(cc3[C@@H](NC(=O)NS(=O)(=O)c3ccc(C(C)C)cc3)[C@H]3COC(=O)[C@H]23)OCO4)cc(OC)c1O	8.35
COc1cc([C@@H]2c3cc4c(cc3[C@@H](NC(=O)NS(=O)(=O)Cc3ccccc3)[C@H]3COC(=O)[C@H]23)OCO4)cc(OC)c1O	14
COc1cc([C@@H]2c3cc4c(cc3[C@@H](NC(=O)NS(=O)(=O)c3ccc5ccccc5c3)[C@H]3COC(=O)[C@H]23)OCO4)cc(OC)c1O	8.62

Consider the additional compound presented here.
Would you kindly share the measured IC50 for COc1ccc(S(=O)(=O)NC(=O)N[C@@H]2c3cc4c(cc3[C@@H](c3cc(OC)c(O)c(OC)c3)[C@H]3C(=O)OC[C@@H]32)OCO4)cc1 ? 8.79

----------
METHOD: Cytotoxicity against multidrug-resistant human KBVIN cells after 72 hrs by sulforhodamine B assay
Type: functional, cell-based
List of IC50 values.
Field format: number, assumed µM, no unit text.

CHEM_SMILES	RESULT
COc1ccc(S(=O)(=O)NC(=O)N[C@@H]2c3cc4c(cc3[C@@H](c3cc(OC)c(O)c(OC)c3)[C@H]3C(=O)OC[C@@H]32)OCO4)c(OC)c1	8.56
COc1cc([C@@H]2c3cc4c(cc3[C@@H](NC(=O)NS(=O)(=O)c3ccccc3)[C@H]3COC(=O)[C@H]23)OCO4)cc(OC)c1OC	1.76
COc1cc([C@@H]2c3cc4c(cc3[C@@H](NC(=O)NS(=O)(=O)c3ccc(F)cc3)[C@H]3COC(=O)[C@H]23)OCO4)cc(OC)c1O	7.92
COc1cc([C@@H]2c3cc4c(cc3[C@@H](NC(=O)NS(=O)(=O)c3ccccc3)[C@H]3COC(=O)[C@H]23)OCO4)cc(OC)c1O	8.76
COc1cc([C@@H]2c3cc4c(cc3[C@@H](NC(=O)NS(=O)(=O)c3ccc(Cl)cc3)[C@H]3COC(=O)[C@H]23)OCO4)cc(OC)c1OC	2.01
COc1cc([C@@H]2c3cc4c(cc3[C@@H](NC(=O)NS(=O)(=O)c3ccc(Cl)cc3)[C@H]3COC(=O)[C@H]23)OCO4)cc(OC)c1O	7.95
COc1cc([C@@H]2c3cc4c(cc3[C@@H](NC(=O)NS(=O)(=O)c3ccc(C(C)C)cc3)[C@H]3COC[C@H]23)OCO4)cc(OC)c1OC	13.2

Consider the additional compound presented here.
Would you kindly share the measured IC50 for CCCCS(=O)(=O)NC(=O)N[C@@H]1c2cc3c(cc2[C@@H](c2cc(OC)c(O)c(OC)c2)[C@H]2C(=O)OC[C@@H]21)OCO3 ? 14
